EXPERIMENT_SUMMARY: qHTS for Inhibitors of the Functional Ribonucleoprotein Complex (vRNP) of Lymphocytic Choriomeningitis Arenaviruses (LCMV): Viability assay - alamar blue signal for LCMV Primary Screen (AID 1347085); also: nearly all actives have a fitted effect of over 80% in size
COND: alamar blue viability counter-screen, LCMV vRNP screen cells; series mostly up to 57.5 µM
Inconclusive results are not listed. Active and inactive are the calls of the source. Calls follow the shape of the full dose curve; tested in HEK293 reporter line.
Result category, one only: Y (active), N (inactive)

Record excerpt, results attached:
MOLECULE | CLASS_LABEL
CC[C@@]1(O)C[C@H](O[C@H]2C[C@H](N(C)C)[C@H](O[C@H]3C[C@H](O)[C@H](O[C@H]4CCC(=O)[C@H](C)O4)[C@H](C)O3)[C@H](C)O2)c2c(cc3c(c2O)C(=O)c2c(O)cccc2C3=O)[C@@H]1C(=O)OC | Y
O=C(O)C1=CC(O)C(O)[C@H](O)C1 (some centres undefined) | N
C=C(C)C(O)COc1c2occc2c(OC)c2ccc(=O)oc12 (centres undefined) | N
OC[C@H]1O[C@@H](O[C@@H]2OC=C[C@H]3[C@H](O)[C@@H]4O[C@]4(CO)[C@@H]23)[C@H](O)[C@@H](O)[C@@H]1O | N

Please state the recorded outcome for this molecule: COC(=O)c1ccc(N2CC3CNC(=O)C2(C(=O)OC)N3C)cc1 (centres undefined)
N

Please state the recorded outcome for this molecule: "CCNc1nc(N)nc(Cl)n1"
N

Please state the recorded outcome for this molecule: "O=C1N[C@@H](Cc2c[nH]c3ccccc23)C(=O)N[C@H]1Cc1c[nH]c2ccccc12"
N

Please state the recorded outcome for this molecule: "O=c1cc(-c2ccc(O)c(O)c2)oc2ccccc12"
N

Please state the recorded outcome for this molecule: "O=C(O)c1cc2cc(F)ccc2[nH]1"
N
